# System: Cytomegalovirus
# Experiment: Effective concentration against AD-169 strain of CMV virus expressed in HEL cells
# Assay type: functional, organism-based
# Measurement conditions: Human betaherpesvirus 5, HEL
With a cut-off of 7 µg/mL, any EC50 strictly below it is called y; any EC50 meeting it or above is called n.

Some solved entries appear below for comparison.
O=C(C1CCCCC1)N(O)c1ccc(Cl)cc1 ... n
Nc1nc2c(ncn2COC(CO)CO)c(=O)[nH]1 ... y
Nc1ccn(C[C@@H](CO)OCP(=O)(O)O)c(=O)n1.O.O ... y
O=C(CC1CCCCC1)N(O)c1ccccc1 ... n
O=C(CCC1CCCC1)N(O)c1ccc(Cl)cc1 ... n

--- query ---
Consider O=C(N(O)c1ccc(Cl)cc1)C12CC3CC(CC(C3)C1)C2 . Does its EC50 lie strictly below 7 µg/mL?
n
